# System: Mycobacterium tuberculosis
# Assay: Antituberculosis activity against Mycobacterium tuberculosis H37Rv in glycerol-alanine salts medium incubated for 4 days by Microplate Alamar Blue assay
# Format: functional
# Condition Label: 96 h
Assignment: determine reported MIC for the given molecules.

Task: I'd like to know its MIC. The molecule in question is CSN1C(=O)[C@@H](NC(=O)COc2ccccc2)[C@@H]1N(OCc1ccccc1)C(=O)c1ccccc1 (racemic)
Result: > 50 µM

Task: Next: C[C@@H](O[Si](C)(C)C(C)(C)C)[C@H]1C(=O)N[C@@H]1N(OCc1ccccc1)C(=O)c1ccccc1
Result: > 100 µM

Task: Next: C[C@H]1COC2(CCN(c3nc(=O)c4cc(C(F)(F)F)cc([N+](=O)[O-])c4s3)CC2)O1
Result: < 0.004 µM

Task: Next: C[C@@H](O)[C@H]1C(=O)N[C@@H]1N(OCc1ccccc1)C(=O)c1ccccc1
Result: > 100 µM

Task: Next: C[C@@H](O[Si](C)(C)C(C)(C)C)[C@H]1C(=O)N[C@@H]1N(O)C(=O)c1ccccc1
Result: > 50 µM

Task: Next: O=C(COc1ccccc1)N[C@@H]1C(=O)N[C@H]1N(OCc1ccccc1)C(=O)c1ccccc1
Result: < 0.195 µM

* * *

# Assay: Inhibition of purified beta-lactamase NDM-1 (unknown origin) using imipenem as substrate preincubated for 10 mins followed by substrate addition
Assignment: determine reported Ki for the given compounds.
API: value field is a number in nM; no unit string.

Task: I'd like to know its Ki. The compound in question is CSN1C(=O)[C@@H](NC(=O)Cc2ccccc2)[C@@H]1N(OCc1ccccc1)C(=O)c1ccccc1 (racemic)
Result: 70

Task: Next: CSN1C(=O)[C@@H](NC(=O)COc2ccccc2)[C@@H]1N(OCc1ccccc1)C(=O)c1cc([N+](=O)[O-])cc(C(F)(F)F)c1 (racemic)
Result: 150

Task: Next: CCOc1ccc(C(=O)N(OCc2ccccc2)C2CC(=O)N2SC)cc1 (racemic)
Result: 70

* * *

Assignment: determine reported Ki for the given compounds.
# Assay: Inhibition of beta-lactamase VIM-1 lysate (unknown origin) using nitrocefin as substrate preincubated for 10 mins followed by substrate addition

Task: I'd like to know its Ki. The compound in question is CSN1C(=O)[C@@H](NC(=O)Cc2ccccc2)[C@@H]1N(OCc1ccccc1)C(=O)c1ccccc1 (racemic)
Result: 2.86 µM

Task: Next: C[C@@H](O[Si](C)(C)C(C)(C)C)[C@H]1C(=O)N[C@@H]1N(O)C(=O)c1ccccc1
Result: > 160 µM

Task: Next: C[C@@H](O)[C@H]1C(=O)N[C@@H]1N(OCc1ccccc1)C(=O)c1ccccc1
Result: > 160 µM

Task: Next: CSN1C(=O)[C@H]([C@@H](C)O[Si](C)(C)C(C)(C)C)[C@H]1N(OCc1ccccc1)C(=O)c1ccccc1
Result: > 160 µM

Task: Next: O=C(Cc1ccccc1)N[C@@H]1C(=O)N[C@H]1N(OCc1ccccc1)C(=O)c1ccccc1
Result: > 160 µM

Task: Next: C[C@@H](O[Si](C)(C)C(C)(C)C)[C@H]1C(=O)N[C@@H]1N(OCc1ccccc1)C(=O)c1ccccc1
Result: > 160 µM

Task: Next: CC(C)(C)[Si](C)(C)ON(C(=O)c1ccccc1)[C@@H]1NC(=O)[C@H]1NC(=O)COc1ccccc1 (racemic)
Result: 31.2 µM

Task: Next: CSN1C(=O)CC1N(OCc1ccccc1)C(=O)c1ccc([N+](=O)[O-])cc1 (racemic)
Result: > 160 µM

Task: Next: C=CCON(C(=O)c1ccc([N+](=O)[O-])cc1)C1CC(=O)N1 (racemic)
Result: > 160 µM

Task: Next: C=CCON(C(=O)c1cc([N+](=O)[O-])cc(C(F)(F)F)c1)C1CC(=O)N1 (racemic)
Result: > 160 µM

Task: Next: CSN1C(=O)[C@@H](NC(=O)COc2ccccc2)[C@@H]1N(OCc1ccccc1)C(=O)c1ccccc1 (racemic)
Result: > 160 µM

Task: Next: CSN1C(=O)[C@@H](NC(=O)COc2ccccc2)[C@@H]1N(OCc1ccccc1)C(=O)c1cc([N+](=O)[O-])cc(C(F)(F)F)c1 (racemic)
Result: > 160 µM

Task: Next: CC(=O)O[C@@H]1NC(=O)[C@H]1NC(=O)COc1ccccc1
Result: > 160 µM
